# targetOrSystem: EGFR (form in the assay not stated) (human, UniProt P00533 25-645, limits assumed)
# protocol: ELISA, NEM conjugate 100 nM
Classification field: Condition met = binding ratio vs parent P54AR4-83v2 at or over 1 ratio; Condition not met = binding ratio vs parent P54AR4-83v2 under 1 ratio.

Entry P54AR4-83v2 G73C, NEM conjugate (designed binder, NEM on Cys 73, His-tagged) LPAPKNLVVSEVTEDSARLSWDDPWAFYESFLIQYQESEKVGEAIVLTVPGSERSYDLTGLKPGTEYTVSIYCVHNVYKDTNMRGLPLSAIFTT : is its binding ratio vs parent P54AR4-83v2 no less than 1 ratio?
Condition not met

Similarly, P54AR4-83v2 T93C, NEM conjugate (designed binder, NEM on Cys 93, His-tagged) LPAPKNLVVSEVTEDSARLSWDDPWAFYESFLIQYQESEKVGEAIVLTVPGSERSYDLTGLKPGTEYTVSIYGVHNVYKDTNMRGLPLSAIFCT ?
Condition met

Similarly, P54AR4-83v2 Y78C, NEM conjugate (designed binder, NEM on Cys 78, His-tagged) LPAPKNLVVSEVTEDSARLSWDDPWAFYESFLIQYQESEKVGEAIVLTVPGSERSYDLTGLKPGTEYTVSIYGVHNVCKDTNMRGLPLSAIFTT ?
Condition not met

Similarly, P54AR4-83v2 A26C, NEM conjugate (designed binder, NEM on Cys 26, His-tagged) LPAPKNLVVSEVTEDSARLSWDDPWCFYESFLIQYQESEKVGEAIVLTVPGSERSYDLTGLKPGTEYTVSIYGVHNVYKDTNMRGLPLSAIFTT ?
Condition met

Similarly, P54AR4-83v2 E11C, NEM conjugate (designed binder, NEM on Cys 11, His-tagged) LPAPKNLVVSCVTEDSARLSWDDPWAFYESFLIQYQESEKVGEAIVLTVPGSERSYDLTGLKPGTEYTVSIYGVHNVYKDTNMRGLPLSAIFTT ?
Condition met

Similarly, P54AR4-83v2 P4C, NEM conjugate (designed binder, NEM on Cys 4, His-tagged) LPACKNLVVSEVTEDSARLSWDDPWAFYESFLIQYQESEKVGEAIVLTVPGSERSYDLTGLKPGTEYTVSIYGVHNVYKDTNMRGLPLSAIFTT ?
Condition not met

The measurements presented in this section are drawn from patent US20170362301A1.
